Data provenance is patent US10640506B2.

target: JAK2 (a.a. 828-1132) (Homo sapiens, UniProt O60674); construct: JAK2 (a.a. 828-1132); His tag (N); experiment: In vitro JAK kinase assay (HTRF, phosphorylation of biotinylated peptide), JAK2; type: biochemical; settings: Table E; 1 mM ATP; listed as 41, isomer 1; read-out: JAK2 IC50 (nM) +
Sequence (O60674 828-1132): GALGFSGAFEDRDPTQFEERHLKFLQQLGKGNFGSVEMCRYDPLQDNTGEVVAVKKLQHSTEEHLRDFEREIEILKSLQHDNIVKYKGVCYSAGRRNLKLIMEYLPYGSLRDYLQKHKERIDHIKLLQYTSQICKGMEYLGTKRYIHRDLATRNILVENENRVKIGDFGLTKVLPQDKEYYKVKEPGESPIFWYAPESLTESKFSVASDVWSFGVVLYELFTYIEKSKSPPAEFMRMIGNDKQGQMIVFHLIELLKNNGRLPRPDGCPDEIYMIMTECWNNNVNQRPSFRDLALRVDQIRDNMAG
RECORDED ENDPOINT: IC50

- MOLECULE: "C[C@H]1CCCN1Cc1cc(F)cc(OC2CCN(C3CC(CC#N)(n4cc(-c5ncnc6[nH]ccc56)cn4)C3)CC2)c1 (single isomer, unassigned; isomer 1) [Example 41, isomer 1]"
  RESULT: "10 to 25 nM"

###

target: JAK2 (a.a. 828-1132) (Homo sapiens); construct: JAK2 (a.a. 828-1132); His tag (N); assay: In vitro JAK kinase assay (HTRF, phosphorylation of biotinylated peptide), JAK2; assay type: biochemical; settings: Table F; 1 mM ATP
pIC50: −log10 of the molar value.
Measured pIC50, listed per entry for reference.

- COMPOUND: "CC(C)NC(=O)N1CCN([C@H]2C[C@@](CC#N)(n3cc(-c4ncnc5[nH]ccc45)cn3)C2)CC1"
  STUDY SYSTEM: "JAK2 (a.a. 828-1132) (Homo sapiens)"
  pIC50: "< 7.00"
- COMPOUND: "N#CC[C@]1(n2cc(-c3ncnc4[nH]ccc34)cn2)C[C@H](N2CCC(Oc3cc(CNCCCO)cc(C(F)(F)F)n3)CC2)C1"
  STUDY SYSTEM: "JAK2 (a.a. 828-1132) (Homo sapiens)"
  pIC50: "7.00 to 7.60"
- COMPOUND: "CS(=O)(=O)N1CCN([C@H]2C[C@](CC#N)(n3cc(-c4ncnc5[nH]ccc45)cn3)C2)CC1"
  STUDY SYSTEM: "JAK2 (a.a. 828-1132) (Homo sapiens)"
  pIC50: "7.60 to 8.00"
- COMPOUND: "CNCc1cc(C(=O)N2CCN([C@H]3C[C@](CC#N)(n4cc(-c5ncnc6[nH]ccc56)cn4)C3)CC2)nc(C(F)(F)F)c1"
  STUDY SYSTEM: "JAK2 (a.a. 828-1132) (Homo sapiens)"
  pIC50: "7.60 to 8.00"
- COMPOUND: "CC(C)[C@H](C)NC(=O)N1CCN([C@H]2C[C@@](CC#N)(n3cc(-c4ncnc5[nH]ccc45)cn3)C2)CC1"
  STUDY SYSTEM: "JAK2 (a.a. 828-1132) (Homo sapiens)"
  pIC50: "< 7.00"
- COMPOUND: "CC(C)[C@@H](C)NC(=O)N1CCN([C@H]2C[C@](CC#N)(n3cc(-c4ncnc5[nH]ccc45)cn3)C2)CC1"
  STUDY SYSTEM: "JAK2 (a.a. 828-1132) (Homo sapiens)"
  pIC50: "7.00 to 7.60"
- COMPOUND: "CC(C)(C)CNC(=O)N1CCN([C@H]2C[C@](CC#N)(n3cc(-c4ncnc5[nH]ccc45)cn3)C2)CC1"
  STUDY SYSTEM: "JAK2 (a.a. 828-1132) (Homo sapiens)"
  pIC50: "< 7.00"
- COMPOUND: "N#CC[C@]1(n2cc(-c3ncnc4[nH]ccc34)cn2)C[C@H](N2CCC(Oc3cc(CN4CCOC4=O)cc(C(F)(F)F)n3)CC2)C1 (single isomer, unassigned) [Example 165, peak 2]"
  STUDY SYSTEM: "JAK2 (a.a. 828-1132) (Homo sapiens)"
  pIC50: "7.00 to 7.60"
- COMPOUND: "N#CC[C@]1(n2cc(-c3ncnc4[nH]ccc34)cn2)C[C@@H](N2CCC(Oc3cc(CN4CCOC4=O)cc(C(F)(F)F)n3)CC2)C1 (single isomer, unassigned) [Example 165, peak 1]"
  STUDY SYSTEM: "JAK2 (a.a. 828-1132) (Homo sapiens)"
  pIC50: "< 7.00"
- COMPOUND: "N#CC[C@]1(n2cc(-c3ncnc4[nH]ccc34)cn2)C[C@H](N2CCN(C(=O)c3cc(C4(N)CCC4)nc(C(F)(F)F)n3)CC2)C1"
  STUDY SYSTEM: "JAK2 (a.a. 828-1132) (Homo sapiens)"
  pIC50: "> 8.00"
- COMPOUND: "N#CC[C@]1(n2cc(-c3ncnc4[nH]ccc34)cn2)C[C@H](N2CCC(Oc3cc(CN4CCC[C@H]4CO)cc(C(F)(F)F)n3)CC2)C1"
  STUDY SYSTEM: "JAK2 (a.a. 828-1132) (Homo sapiens)"
  pIC50: "7.00 to 7.60"
- COMPOUND: "N#CC[C@]1(n2cc(-c3ncnc4[nH]ccc34)cn2)C[C@H](N2CCC(Oc3cc(CNCCO)cc(C(F)(F)F)n3)CC2)C1"
  STUDY SYSTEM: "JAK2 (a.a. 828-1132) (Homo sapiens)"
  pIC50: "7.00 to 7.60"

###

target: JAK2 (a.a. 828-1132) (Homo sapiens); construct: JAK2 (a.a. 828-1132); His tag (N); assay: In vitro JAK kinase assay (HTRF, phosphorylation of biotinylated peptide), JAK2; assay type: biochemical; settings: Table C; 1 mM ATP; read-out: JAK2 IC50
pIC50: −log10 of the molar value.
RECORDED ENDPOINT: pIC50

- CHEMICAL STRUCTURE: "[2H][C@]1(N2CCN(C(=O)c3ccnc(C(F)(F)F)n3)CC2)C[C@@](CC#N)(n2cc(-c3ncnc4[nH]ccc34)cn2)C1"
  RESULT: "< 7.00"

###

target: JAK2 (a.a. 828-1132) (Homo sapiens, UniProt O60674); construct: JAK2 (a.a. 828-1132); His tag (N); assay: In vitro JAK kinase assay (HTRF, phosphorylation of biotinylated peptide), JAK2; type: biochemical; conditions: Table E; 1 mM ATP; listed as 40, isomer 1; read-out: JAK2 IC50 (nM) +

- COMPOUND: "CN(C)Cc1cc(F)cc(OC2CCN(C3CC(CC#N)(n4cc(-c5ncnc6[nH]ccc56)cn4)C3)CC2)c1 (single isomer, unassigned; isomer 1) [Example 40, isomer 1]"
  STUDY SYSTEM: "JAK2 (a.a. 828-1132) (Homo sapiens, UniProt O60674)"
  IC50: "10 to 25 nM"

###

Target: JAK2 (a.a. 828-1132) (Homo sapiens)
Construct: JAK2 (a.a. 828-1132); His tag (N)
Experiment: In vitro JAK kinase assay (HTRF, phosphorylation of biotinylated peptide), JAK2
Type: biochemical
Details: Table E; 1 mM ATP; listed as 40, isomer 2; read-out: JAK2 IC50 (nM) +
Procedure: Compounds herein were tested for inhibitory activity of JAK targets according to the following in vitro assay described in Park et al., Analytical Biochemistry 1999, 269, 94-104. […] The phosphorylated peptide was detected by homogenous time resolved fluorescence (HTRF). […] Binding to the Europium labeled antibody took place for 40 minutes and HTRF signal was measured on a Fusion plate reader (Perkin Elmer, Boston, Mass.). […]

- MOLECULE: "CN(C)Cc1cc(F)cc(OC2CCN(C3CC(CC#N)(n4cc(-c5ncnc6[nH]ccc56)cn4)C3)CC2)c1 (single isomer, unassigned; isomer 2) [Example 40, isomer 2]"
  IC50: "< 10 nM"

###

# IC50 per record follows
target: JAK2 (a.a. 828-1132) (Homo sapiens, UniProt O60674); construct: JAK2 (a.a. 828-1132); His tag (N); experiment: In vitro JAK kinase assay (HTRF, phosphorylation of biotinylated peptide), JAK2; format: biochemical; conditions: Table A; 1 mM ATP; read-out: JAK2 IC50
Structures can show the parent of a compound that is named as a salt.
RECORDED ENDPOINT: IC50

- COMPOUND: "N#CC[C@]1(n2cc(-c3ncnc4[nH]ccc34)cn2)C[C@@H](N2CCN(C(=O)c3ccnc(C(F)F)c3F)CC2)C1 [Example 11a]"
  STUDY SYSTEM: "JAK2 (a.a. 828-1132) (Homo sapiens, UniProt O60674)"
  RESULT: "> 100 nM"
- COMPOUND: "C[C@H]1CCCN1C(=O)N1CCN([C@H]2C[C@@](CC#N)(n3cc(-c4ncnc5[nH]ccc45)cn3)C2)CC1"
  STUDY SYSTEM: "JAK2 (a.a. 828-1132) (Homo sapiens, UniProt O60674)"
  RESULT: "> 100 nM"
- COMPOUND: "N#CC[C@]1(n2cc(-c3ncnc4[nH]ccc34)cn2)C[C@@H](N2CCN(C(=O)c3cc(F)cnc3Cl)CC2)C1"
  STUDY SYSTEM: "JAK2 (a.a. 828-1132) (Homo sapiens, UniProt O60674)"
  RESULT: "> 100 nM"
- COMPOUND: "N#CC[C@]1(n2cc(-c3ncnc4[nH]ccc34)cn2)C[C@@H](N2CCN(C(=O)c3cccc(C(F)(F)F)n3)CC2)C1 [Example 20a]"
  STUDY SYSTEM: "JAK2 (a.a. 828-1132) (Homo sapiens, UniProt O60674)"
  RESULT: "25 to 100 nM"
- COMPOUND: "CN(C)c1ccc(CN2CCN([C@H]3C[C@@](CC#N)(n4cc(-c5ncnc6[nH]ccc56)cn4)C3)CC2)c(F)c1C#N"
  STUDY SYSTEM: "JAK2 (a.a. 828-1132) (Homo sapiens, UniProt O60674)"
  RESULT: "25 to 100 nM"
- COMPOUND: "N#CC[C@]1(n2cc(-c3ncnc4[nH]ccc34)cn2)C[C@@H](N2CCN(C(=O)c3ccc(Cl)cc3)CC2)C1"
  STUDY SYSTEM: "JAK2 (a.a. 828-1132) (Homo sapiens, UniProt O60674)"
  RESULT: "10 to 25 nM"
- COMPOUND: "N#CC[C@]1(n2cc(-c3ncnc4[nH]ccc34)cn2)C[C@@H](N2CCN(C(=O)c3ccnc(C(F)(F)F)n3)CC2)C1"
  STUDY SYSTEM: "JAK2 (a.a. 828-1132) (Homo sapiens, UniProt O60674)"
  RESULT: "> 100 nM"
- COMPOUND: "N#CC[C@]1(n2cc(-c3ncnc4[nH]ccc34)cn2)C[C@@H](N2CCN(C(=O)Nc3ccc(F)cc3C(F)(F)F)CC2)C1 [Example 3a, (trifluoroacetate) Salt]"
  STUDY SYSTEM: "JAK2 (a.a. 828-1132) (Homo sapiens, UniProt O60674)"
  RESULT: "> 100 nM"
- COMPOUND: "N#CC[C@]1(n2cc(-c3ncnc4[nH]ccc34)cn2)C[C@@H](N2CCN(C(=O)c3cccc(C(F)F)n3)CC2)C1 [Example 21a]"
  STUDY SYSTEM: "JAK2 (a.a. 828-1132) (Homo sapiens, UniProt O60674)"
  RESULT: "25 to 100 nM"
- COMPOUND: "N#CC[C@]1(n2cc(-c3ncnc4[nH]ccc34)cn2)C[C@@H](N2CCN(C(=O)c3cc(F)cc(C(F)(F)F)c3)CC2)C1"
  STUDY SYSTEM: "JAK2 (a.a. 828-1132) (Homo sapiens, UniProt O60674)"
  RESULT: "25 to 100 nM"
- COMPOUND: "N#CC[C@]1(n2cc(-c3ncnc4[nH]ccc34)cn2)C[C@@H](N2CCN(C(=O)c3cncc(F)c3)CC2)C1 [Example 10a]"
  STUDY SYSTEM: "JAK2 (a.a. 828-1132) (Homo sapiens, UniProt O60674)"
  RESULT: "> 100 nM"
- COMPOUND: "N#CC[C@]1(n2cc(-c3ncnc4[nH]ccc34)cn2)C[C@@H](N2CCN(C(=O)c3cc(F)cc(C#N)c3)CC2)C1 [Example 12a]"
  STUDY SYSTEM: "JAK2 (a.a. 828-1132) (Homo sapiens, UniProt O60674)"
  RESULT: "25 to 100 nM"
- COMPOUND: "N#CC[C@]1(n2cc(-c3ncnc4[nH]ccc34)cn2)C[C@@H](N2CCN(C(=O)c3cncc(C(F)(F)F)n3)CC2)C1 [Example 14a]"
  STUDY SYSTEM: "JAK2 (a.a. 828-1132) (Homo sapiens, UniProt O60674)"
  RESULT: "25 to 100 nM"
